Assayed target: Human AMPK α2β2γ1 (Homo sapiens, UniProt O43741+P54646)
Construct: The full length cDNAs of human AMPK β2 (NM_005399.3) and human AMPK α2 (NM_006252.3); The full length cDNAs of human AMPK β2 (NM_005399.3); the full length cDNA of human AMPK γ1 (NM_002733.3) had been inserted into pET28b(+); 6×His (N); made in house; host or cells: Escherichia coli BL21 CodonPlus (DE3)-RIL
Sequence (P54646 whole entry): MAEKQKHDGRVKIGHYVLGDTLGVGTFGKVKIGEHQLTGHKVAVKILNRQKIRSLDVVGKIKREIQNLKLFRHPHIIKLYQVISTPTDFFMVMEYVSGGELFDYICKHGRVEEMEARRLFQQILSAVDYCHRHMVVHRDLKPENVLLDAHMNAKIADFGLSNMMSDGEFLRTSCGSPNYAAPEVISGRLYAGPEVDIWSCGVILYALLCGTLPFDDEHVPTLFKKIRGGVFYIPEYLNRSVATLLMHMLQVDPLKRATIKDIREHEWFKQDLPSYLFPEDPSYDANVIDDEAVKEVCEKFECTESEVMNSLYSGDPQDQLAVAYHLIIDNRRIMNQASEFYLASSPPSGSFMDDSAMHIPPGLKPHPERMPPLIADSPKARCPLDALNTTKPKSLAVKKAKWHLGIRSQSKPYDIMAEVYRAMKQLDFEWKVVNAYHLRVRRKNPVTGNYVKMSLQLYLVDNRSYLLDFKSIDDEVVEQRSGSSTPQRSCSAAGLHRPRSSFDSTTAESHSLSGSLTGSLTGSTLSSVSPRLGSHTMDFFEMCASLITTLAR
Sequence (O43741 whole entry): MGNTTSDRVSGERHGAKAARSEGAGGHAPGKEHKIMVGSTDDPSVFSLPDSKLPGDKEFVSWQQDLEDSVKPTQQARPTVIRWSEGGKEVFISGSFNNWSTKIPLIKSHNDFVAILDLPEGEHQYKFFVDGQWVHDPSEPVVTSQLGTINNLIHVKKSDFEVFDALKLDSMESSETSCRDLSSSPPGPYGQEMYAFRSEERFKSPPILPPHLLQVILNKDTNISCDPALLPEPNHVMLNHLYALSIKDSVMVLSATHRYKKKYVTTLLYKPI
Sequence (P54619 whole entry partner): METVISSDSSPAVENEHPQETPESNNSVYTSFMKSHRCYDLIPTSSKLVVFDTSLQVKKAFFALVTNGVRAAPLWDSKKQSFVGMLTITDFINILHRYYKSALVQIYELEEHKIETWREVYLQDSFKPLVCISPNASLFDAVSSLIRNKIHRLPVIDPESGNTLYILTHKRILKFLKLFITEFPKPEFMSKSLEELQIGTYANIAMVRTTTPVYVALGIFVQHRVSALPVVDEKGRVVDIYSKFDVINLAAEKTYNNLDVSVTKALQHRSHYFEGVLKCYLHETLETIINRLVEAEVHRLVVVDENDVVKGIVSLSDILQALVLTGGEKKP
Experiment: Test Example 2: activation of phosphorylated human AMPK α2β2γ1 (mobility-shift kinase assay, FL-Peptide 7)
Format: biochemical
Stated conditions: maximum rate of increase in activity within the measurement range, control = 100%; read-out: Emax
Label scheme for Emax: lower than 500% is 0 (no), 500% and above is 1 (yes).

These recorded examples may help you get a feel for the data.
{"columns": ["Compound", "Group"],
 "data": [
  ["C[S+]([O-])c1ccc(-c2ccc(-c3nc4cc(O[C@@H]5CO[C@H]6[C@@H]5OC[C@H]6O)[nH]c4cc3F)cc2)cc1 (stereo partly drawn) [Compound I-1-64]", "0 (no)"],
  ["COC(=O)N[C@H]1CC[C@H](c2ccc(-c3nc4cc(O[C@@H]5CO[C@H]6[C@@H]5OC[C@H]6O)[nH]c4cc3F)cc2)CC1", "1 (yes)"],
  ["O[C@@H]1CO[C@H]2[C@@H]1OC[C@H]2Oc1cc2nc(-c3ccc(-c4ccc(OC5CCOC5)cc4)cc3)c(F)cc2[nH]1 (stereo partly drawn)", "1 (yes)"],
  ["OCCOc1ccc(-c2ccc(-c3nc4cc(O[C@@H]5CO[C@H]6[C@@H]5OC[C@H]6O)[nH]c4cc3F)cc2)cc1", "0 (no)"],
  ["CC(=O)Nc1ccc(-c2ccc(-c3nc4cc(O[C@@H]5CO[C@H]6[C@@H]5OC[C@H]6O)[nH]c4cc3F)cc2)cc1", "0 (no)"]
]}

INPUT: State whether the measured Emax reaches 500%, counting equality as reaching it, for O[C@@H]1CO[C@H]2[C@@H]1OC[C@H]2Oc1cc2nc(-c3ccc(N4CCC(OC5CCNC5)CC4)cc3)c(F)cc2[nH]1 (stereo partly drawn)
OUTPUT: 1 (yes)

INPUT: Now the compound "O[C@@H]1CO[C@H]2[C@@H]1OC[C@H]2Oc1cc2nc(-c3ccc(-c4ccc(NC5=NCCO5)cc4)cc3)c(F)cc2[nH]1"
OUTPUT: 0 (no)

INPUT: Now the compound "O=C1CCCN1c1ccc(-c2ccc(-c3nc4cc(O[C@@H]5CO[C@H]6[C@@H]5OC[C@H]6O)[nH]c4cc3F)cc2)cc1"
OUTPUT: 0 (no)

INPUT: Now the compound "CNCCOc1ccc(-c2ccc(-c3nc4cc(O[C@@H]5CO[C@H]6[C@@H]5OC[C@H]6O)[nH]c4cc3F)cc2)cc1"
OUTPUT: 0 (no)

INPUT: Now the compound "OCCCc1ccc(-c2ccc(-c3nc4cc(O[C@@H]5CO[C@H]6[C@@H]5OC[C@H]6O)[nH]c4cc3F)cc2)cc1"
OUTPUT: 1 (yes)

INPUT: Now the compound COCCOC1CCN(c2ccc(-c3nc4cc(O[C@@H]5CO[C@H]6[C@@H]5OC[C@H]6O)[nH]c4cc3F)cc2)C1 (stereo partly drawn)
OUTPUT: 0 (no)

Values compiled from patent US10478425B2.
